# target-system: T1, Histidine-tagged human CD40 protein (hCD40-His) (human, UniProt P25942 21-193)
# T1 construct: not shown: histidine tag
# T1 sequence (P25942 21-193 limits assumed): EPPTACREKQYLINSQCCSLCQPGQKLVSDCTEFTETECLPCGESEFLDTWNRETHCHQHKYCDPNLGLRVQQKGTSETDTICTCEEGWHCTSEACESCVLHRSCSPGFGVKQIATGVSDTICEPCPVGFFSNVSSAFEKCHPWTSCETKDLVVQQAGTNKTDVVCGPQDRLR
# measurement-description: SPR, Biacore T200; antibody on Protein A chip, hCD40-His injected; 1:1 fit
outcome-measure: kon (M⁻¹ s⁻¹)
Your answer should be a plain number; it is taken to be in M⁻¹ s⁻¹.

Example cases with answers are listed next.
7F10-H3K4-IgG4 (antibody, V domains shown, Humanized) VH: EVKLVESGGGLVQPGGSLRLSCATSGFTFSDYYMYWVRQAPEKRLEWVAYISYGGDSTFYPDTVRGRFTISRDNAKNALYLQMSRLKAEDTAVYYCARPAPSAHSYYLDYWGQGTTLTVSS VL: DIQMTQSTSSLSASVGDRVTITCRASQDISNYLNWYQQKPDGTVKLLIYYTSRLHSGLPSRFSGSGSGTDYTLTISSLQQEDIATYYCQQGKTLPFTFASGTKLEIK | 149000
7F10-H1K2-IgG4 (antibody, V domains shown, Humanized) VH: EVQLVESGGGLVQPGGSLRLSCATSGFTFSDYYMYWVRQAPGKRLEWVAYISYGGDSTFYPDTVRGRFTISRDNAKNSLYLQMNSLRAEDTAVYYCARPAPSAHSYYLDYWGQGTLLTVSS VL: DIQMTQSPSSLSASVGDRVTITCRASQDISNYLNWYQQKPGGAVKLLIYYTSRLHSGLPSRFSGSGSGTDYTFTISSLQPEDIATYYCQQGKTLPFTFASGTKLEIK | 82800
6A7-H3K1-IgG4 (antibody, V domains shown, Humanized) VH: QVQLVQSGAEVKKPGASVKVSCKASGYTFISYYIYWVRQAPGQGLEWIGGINPRNGGTNFNEKFKSRATLTVDTSISTAYMELSRLRSEDTAVYYCTRHGNGVYWGQGTTVTVSS VL: DVVMTQSPLSLPVTLGQPASISCRSSQSLLHSNGNTYLHWFQQRPGQSPRHLIYQVSNRFSGVPDRFSGSGSGTDFTLKISRVEAEDVGVYYCSQTTHVPWTFGGGTKVEIK | 27600
7F10-H2K3-IgG4 (antibody, V domains shown, Humanized) VH: EVQLVESGGGLVQPGGSLRLSCATSGFTFSDYYMYWVRQAPGKRLEWVAYISYGGDSTFYPDTVRGRFTISRDNAKNSLYLQMSSLKAEDTAVYYCARPAPSAHSYYLDYWGQGTLLTVSS VL: DIQMTQSTSSLSASVGDRVTITCRASQDISNYLNWYQQKPGGAVKLLIYYTSRLHSGLPSRFSGSGSGTDYTLTISSLQQEDIATYYCQQGKTLPFTFASGTKLEIK | 172000

Tell me measured kon for 6A7-H2K1-IgG4 (antibody, V domains shown, Humanized) VH: QVQLVQSGAEVKKPGASVKVSCKASGYTFISYYIYWVRQAPGQGLEWIGGINPRNGGTNFNEKFKSRATLTVDTSISTAYMELSRLRSEDTAVYYCARHGNGVYWGQGTTVTVSS VL: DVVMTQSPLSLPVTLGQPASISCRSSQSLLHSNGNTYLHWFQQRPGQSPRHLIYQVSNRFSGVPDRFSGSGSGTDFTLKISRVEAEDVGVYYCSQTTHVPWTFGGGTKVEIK please.
23700

Tell me measured kon for 6A7-mHvKv-IgG4 (antibody, V domains shown, Chimeric; also called chimeric anti-hCD40 antibody 6A7-mHvKv-IgG4) VH: QVQLQQPGAELVKPGASVKLSCKASGYTFISYYIYWVKQRPGQGLEWIGGINPRNGGTNFNEKFKSKATLTVDKSSSTAYMQLSSLTSEDSAVYYCTRHGNGVYWGQGTTLTVSS VL: DVVMTQTPLSLPVSLGDQASISCRSSQSLLHSNGNTYLHWYLQKPGQSPNHLIYQVSNRFSGVPDRFSGSGSGTDFTLKISRVEAEDLGVYFCSQTTHVPWTFGGGTKLEIK please.
99400

Tell me measured kon for 4H6-H2K1-IgG4 (antibody, V domains shown, Humanized) VH: EVQLQESGPGLVKPSQTLSLTCTVSGDSVSSGYWNWIRKHPGKKLEWIGFISYSGSTYYTPSLKSRVTISRDTSKNQFSLKLSSVTAADTAVYYCARFRRYDDGVDYWGQGTLVTVSS VL: DIQMTQSPSAMSASVGDRVTITCRASHEISGYLSWFQQKPGGVIKRLINAASTLASGVPSRFSGSRSGTEFTLTISSLQPEDFATYYCLQYSSYPWTFGGGTKLEIK please.
507000

Tell me measured kon for 4H6-H1K3-IgG4 (antibody, V domains shown, Humanized) VH: QVQLQESGPGLVKPSQTLSLTCTVSGDSVSSGYWNWIRKHPGKKLEWIGFISYSGSTYYTPSLKSRVTISRDTSKNQFSLKLSSVTAADTAVYYCARFRRYDDGVDYWGQGTLVTVSS VL: DIQMTQSPSAMSASVGDRVTITCRASHEISGYLSWIQQKPGGTIKRLINAASTLASGVPSRFSGSRSGTEYTLTISSLQPEDFADYYCLQYSSYPWTFGGGTKLEIK please.
242000

Tell me measured kon for 4H6-H4K2-IgG4 (antibody, V domains shown, Humanized) VH: EVQLQESGPGLVKPSQTLSLTCTVSGDSVSSGYWNWIRKFPGKKLEYMGFISYSGSTYYTPSLKSRITISRDTSKNQFSLKLSSVTAADTAVYFCARFRRYDDGVDYWGQGTLVTVSS VL: DIQMTQSPSAMSASVGDRVTITCRASHEISGYLSWIQQKPGGTIKRLINAASTLASGVPSRFSGSRSGTEFTLTISSLQPEDFADYYCLQYSSYPWTFGGGTKLEIK please.
392000

Tell me measured kon for 4H6-H4K3-IgG4 (antibody, V domains shown, Humanized) VH: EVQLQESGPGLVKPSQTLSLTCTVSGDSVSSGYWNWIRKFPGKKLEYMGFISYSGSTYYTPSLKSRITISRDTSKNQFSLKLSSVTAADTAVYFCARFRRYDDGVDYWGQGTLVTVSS VL: DIQMTQSPSAMSASVGDRVTITCRASHEISGYLSWIQQKPGGTIKRLINAASTLASGVPSRFSGSRSGTEYTLTISSLQPEDFADYYCLQYSSYPWTFGGGTKLEIK please.
327000
